test-target: Delta-type opioid receptor (Homo sapiens)
Sequence (P41143 whole entry): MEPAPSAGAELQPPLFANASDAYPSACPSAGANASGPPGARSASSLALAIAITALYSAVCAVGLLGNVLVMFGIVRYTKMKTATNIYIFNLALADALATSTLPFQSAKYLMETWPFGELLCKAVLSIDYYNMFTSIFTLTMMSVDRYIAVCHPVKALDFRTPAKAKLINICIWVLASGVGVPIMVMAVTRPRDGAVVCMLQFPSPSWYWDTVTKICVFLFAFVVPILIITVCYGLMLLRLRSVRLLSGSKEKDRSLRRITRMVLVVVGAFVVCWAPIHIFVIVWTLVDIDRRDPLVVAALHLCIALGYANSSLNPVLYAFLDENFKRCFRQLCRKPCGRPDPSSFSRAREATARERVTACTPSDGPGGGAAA
protocol-description: In vitro binding affinity towards opioid receptor delta 1
// bucketize Ki: lower band: < 5 nM; central band: ≥ 5 nM and < 20 nM; upper band: ≥ 20 nM

- line-notation: "C=CCN1C2CCC1CC(=C(c1ccc(C(=O)NCC)cc1)c1cccc(OC)c1)C2"
  test-target: "Delta-type opioid receptor (Homo sapiens)"
  class-assignment: "lower band"
- line-notation: "CCNC(=O)c1ccc(C(=C2CC3CCC(C2)N3Cc2ccccc2Cl)c2cccc(OC)c2)cc1"
  test-target: "Delta-type opioid receptor (Homo sapiens)"
  class-assignment: "central band"
- line-notation: "CCCNC(=O)c1ccc(C(=C2CC3CCC(C2)N3CCc2ccccc2)c2ccccc2)cc1"
  test-target: "Delta-type opioid receptor (Homo sapiens)"
  class-assignment: "upper band"
- line-notation: "O=C(Nc1nccs1)c1ccc(C(=C2CC3CCC(C2)N3CCc2ccccc2)c2ccccc2)cc1"
  test-target: "Delta-type opioid receptor (Homo sapiens)"
  class-assignment: "upper band"
- line-notation: "CCNC(=O)c1ccc(/C(=C2/C[C@H]3CC[C@@H](C2)N3)c2ccccc2)cc1"
  test-target: "Delta-type opioid receptor (Homo sapiens)"
  class-assignment: "central band"
- line-notation: "COCCNC(=O)c1ccc(C(=C2CC3CCC(C2)N3CCc2ccccc2)c2ccccc2)cc1"
  test-target: "Delta-type opioid receptor (Homo sapiens)"
  class-assignment: "upper band"
- line-notation: "CCNC(=O)c1ccc(C(=C2CC3CCC(C2)N3Cc2[nH]cnc2C)c2ccccc2)cc1"
  test-target: "Delta-type opioid receptor (Homo sapiens)"
  class-assignment: "central band"
- line-notation: "CNC(=O)c1ccc(C(=C2CC3CCC(C2)N3CCc2ccccc2)c2ccccc2)cc1"
  test-target: "Delta-type opioid receptor (Homo sapiens)"
  class-assignment: "central band"
- line-notation: "CCNC(=O)c1ccc(C(=C2CC3CCC(C2)N3CC=C(C)C)c2cccc(OC)c2)cc1"
  test-target: "Delta-type opioid receptor (Homo sapiens)"
  class-assignment: "lower band"
- line-notation: "C=CCN1[C@@H]2CC[C@H]1C/C(=C(/c1ccccc1)c1ccc(C(=O)NCC)cc1)C2"
  test-target: "Delta-type opioid receptor (Homo sapiens)"
  class-assignment: "lower band"
- line-notation: "O=C(Nc1ccccc1)c1ccc(C(=C2CC3CCC(C2)N3CCc2ccccc2)c2ccccc2)cc1"
  test-target: "Delta-type opioid receptor (Homo sapiens)"
  class-assignment: "upper band"
- line-notation: "CC(C)(C)NC(=O)c1ccc(C(=C2CC3CCC(C2)N3CCc2ccccc2)c2ccccc2)cc1"
  test-target: "Delta-type opioid receptor (Homo sapiens)"
  class-assignment: "upper band"
- line-notation: "CCNC(=O)c1ccc(C(=C2CC3CCC(C2)N3Cc2ccccc2Cl)c2ccc(O)cc2)cc1"
  test-target: "Delta-type opioid receptor (Homo sapiens)"
  class-assignment: "lower band"
- line-notation: "CCNC(=O)c1ccc(C(=C2CC3CCC(C2)N3CCc2ccccc2)c2ccc(O)cc2)cc1"
  test-target: "Delta-type opioid receptor (Homo sapiens)"
  class-assignment: "central band"
- line-notation: "CCNC(=O)c1ccc(C(=C2CC3CCC(C2)N3Cc2cccs2)c2ccc(OC)cc2)cc1"
  test-target: "Delta-type opioid receptor (Homo sapiens)"
  class-assignment: "lower band"
- line-notation: "CCNC(=O)c1ccc(C(=C2CC3CCC(C2)N3CCCc2ccccc2)c2ccccc2)cc1"
  test-target: "Delta-type opioid receptor (Homo sapiens)"
  class-assignment: "central band"
- line-notation: "O=C(NCCF)c1ccc(C(=C2CC3CCC(C2)N3CCc2ccccc2)c2ccccc2)cc1"
  test-target: "Delta-type opioid receptor (Homo sapiens)"
  class-assignment: "upper band"
- line-notation: "CCNC(=O)c1ccc(C(=C2CC3CCC(C2)N3Cc2cccs2)c2ccc(O)cc2)cc1"
  test-target: "Delta-type opioid receptor (Homo sapiens)"
  class-assignment: "lower band"

----------
What follows is a collection of Ki values obtained with Mu-type opioid receptor (Homo sapiens, UniProt P35372).
Sequence (P35372 whole entry): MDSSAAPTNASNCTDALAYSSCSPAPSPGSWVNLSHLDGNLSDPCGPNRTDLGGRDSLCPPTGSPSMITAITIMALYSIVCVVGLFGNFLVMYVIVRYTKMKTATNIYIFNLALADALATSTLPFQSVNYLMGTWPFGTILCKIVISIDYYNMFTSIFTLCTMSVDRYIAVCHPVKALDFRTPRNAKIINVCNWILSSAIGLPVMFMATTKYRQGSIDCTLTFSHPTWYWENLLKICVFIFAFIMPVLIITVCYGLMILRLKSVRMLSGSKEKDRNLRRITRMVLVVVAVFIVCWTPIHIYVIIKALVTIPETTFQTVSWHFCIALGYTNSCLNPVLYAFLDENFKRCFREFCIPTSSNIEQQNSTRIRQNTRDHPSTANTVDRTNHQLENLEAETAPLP

- line-notation: "COCCNC(=O)c1ccc(C(=C2CC3CCC(C2)N3CCc2ccccc2)c2ccccc2)cc1"
  test-target: "Mu-type opioid receptor (Homo sapiens, UniProt P35372)"
  measurement-unit: "nM"
  Ki: 163
- line-notation: "C=CCN1C2CCC1CC(=C(c1ccc(C(=O)NCC)cc1)c1cccc(O)c1)C2"
  test-target: "Mu-type opioid receptor (Homo sapiens, UniProt P35372)"
  measurement-unit: "nM"
  Ki: 9.58
- line-notation: "CCNC(=O)c1ccc(C(=C2CC3CCC(C2)N3)c2ccc(O)cc2)cc1"
  test-target: "Mu-type opioid receptor (Homo sapiens, UniProt P35372)"
  measurement-unit: "nM"
  Ki: 265
- line-notation: "CCNC(=O)c1ccc(/C(=C2\\C[C@H]3CC[C@@H](C2)N3C)c2ccccc2)cc1"
  test-target: "Mu-type opioid receptor (Homo sapiens, UniProt P35372)"
  measurement-unit: "nM"
  Ki: 304
- line-notation: "O=C(NCCF)c1ccc(C(=C2CC3CCC(C2)N3CCc2ccccc2)c2ccccc2)cc1"
  test-target: "Mu-type opioid receptor (Homo sapiens, UniProt P35372)"
  measurement-unit: "nM"
  Ki: 2.99
- line-notation: "O=C(Nc1ccccc1)c1ccc(C(=C2CC3CCC(C2)N3CCc2ccccc2)c2ccccc2)cc1"
  test-target: "Mu-type opioid receptor (Homo sapiens, UniProt P35372)"
  measurement-unit: "nM"
  Ki: 4240
- line-notation: "C=CCN1[C@@H]2CC[C@H]1C/C(=C(/c1ccccc1)c1ccc(C(=O)NCC)cc1)C2"
  test-target: "Mu-type opioid receptor (Homo sapiens, UniProt P35372)"
  measurement-unit: "nM"
  Ki: 10.5
- line-notation: "CCNC(=O)c1ccc(C(=C2CC3CCC(C2)N3Cc2ccccc2Cl)c2ccc(OC)cc2)cc1"
  test-target: "Mu-type opioid receptor (Homo sapiens, UniProt P35372)"
  measurement-unit: "nM"
  Ki: 122
- line-notation: "CCNC(=O)c1ccc(C(=C2CC3CCC(C2)N3CCc2ccccc2)c2cccc(O)c2)cc1"
  test-target: "Mu-type opioid receptor (Homo sapiens, UniProt P35372)"
  measurement-unit: "nM"
  Ki: 0.222
- line-notation: "CCNC(=O)c1ccc(/C(=C2/C[C@H]3CC[C@@H](C2)N3C)c2ccccc2)cc1"
  test-target: "Mu-type opioid receptor (Homo sapiens, UniProt P35372)"
  measurement-unit: "nM"
  Ki: 42.5
- line-notation: "CCNC(=O)c1ccc(/C(=C2/C[C@H]3CC[C@@H](C2)N3)c2ccccc2)cc1"
  test-target: "Mu-type opioid receptor (Homo sapiens, UniProt P35372)"
  measurement-unit: "nM"
  Ki: 74.7
- line-notation: "NC(=O)c1ccc(C(=C2CC3CCC(C2)N3CCc2ccccc2)c2ccccc2)cc1"
  test-target: "Mu-type opioid receptor (Homo sapiens, UniProt P35372)"
  measurement-unit: "nM"
  Ki: 39.6
- line-notation: "O=C(Nc1nccs1)c1ccc(C(=C2CC3CCC(C2)N3CCc2ccccc2)c2ccccc2)cc1"
  test-target: "Mu-type opioid receptor (Homo sapiens, UniProt P35372)"
  measurement-unit: "nM"
  Ki: 53
- line-notation: "CCNC(=O)c1ccc(/C(=C2\\C[C@H]3CC[C@@H](C2)N3CCc2ccccc2)c2ccccc2)cc1"
  test-target: "Mu-type opioid receptor (Homo sapiens, UniProt P35372)"
  measurement-unit: "nM"
  Ki: 0.26
- line-notation: "CC(C)(C)NC(=O)c1ccc(C(=C2CC3CCC(C2)N3CCc2ccccc2)c2ccccc2)cc1"
  test-target: "Mu-type opioid receptor (Homo sapiens, UniProt P35372)"
  measurement-unit: "nM"
  Ki: 608
- line-notation: "O=C(NC1CC1)c1ccc(C(=C2CC3CCC(C2)N3CCc2ccccc2)c2ccccc2)cc1"
  test-target: "Mu-type opioid receptor (Homo sapiens, UniProt P35372)"
  measurement-unit: "nM"
  Ki: 1.01
- line-notation: "CCNC(=O)c1ccc(C(=C2CC3CCC(C2)N3)c2cccc(OC)c2)cc1"
  test-target: "Mu-type opioid receptor (Homo sapiens, UniProt P35372)"
  measurement-unit: "nM"
  Ki: 96
- line-notation: "C=CCN1[C@@H]2CC[C@H]1C/C(=C(\\c1ccccc1)c1ccc(C(=O)NCC)cc1)C2"
  test-target: "Mu-type opioid receptor (Homo sapiens, UniProt P35372)"
  measurement-unit: "nM"
  Ki: 19.1
- line-notation: "CCNC(=O)c1ccc(/C(=C2/C[C@H]3CC[C@@H](C2)N3CCc2ccccc2)c2ccccc2)cc1"
  test-target: "Mu-type opioid receptor (Homo sapiens, UniProt P35372)"
  measurement-unit: "nM"
  Ki: 7.16

----------
test-target: Delta-type opioid receptor (Homo sapiens)
protocol-description: In vitro binding affinity towards opioid receptor delta 1
pKi: −log10 of the molar value.
pKi of 8 or higher: fulfilled. Under 8: not fulfilled.

- line-notation: "CCNC(=O)c1ccc(/C(=C2\\C[C@H]3CC[C@@H](C2)N3C)c2ccccc2)cc1"
  class-assignment: "not fulfilled"
- line-notation: "C=CCN1C2CCC1CC(=C(c1ccc(C(=O)NCC)cc1)c1cccc(O)c1)C2"
  class-assignment: "fulfilled"
- line-notation: "CCNC(=O)c1ccc(C(=C2CC3CCC(C2)N3Cc2ccccc2Cl)c2ccc(OC)cc2)cc1"
  class-assignment: "fulfilled"
- line-notation: "CCCCNC(=O)c1ccc(C(=C2CC3CCC(C2)N3CCc2ccccc2)c2ccccc2)cc1"
  class-assignment: "not fulfilled"
- line-notation: "CCNC(=O)c1ccc(/C(=C2\\C[C@H]3CC[C@@H](C2)N3CCc2ccccc2)c2ccccc2)cc1"
  class-assignment: "not fulfilled"
- line-notation: "NC(=O)c1ccc(C(=C2CC3CCC(C2)N3CCc2ccccc2)c2ccccc2)cc1"
  class-assignment: "not fulfilled"
- line-notation: "CCNC(=O)c1ccc(/C(=C2/C[C@H]3CC[C@@H](C2)N3CCc2ccccc2)c2ccccc2)cc1"
  class-assignment: "fulfilled"
- line-notation: "CCNC(=O)c1ccc(C(=C2CC3CCC(C2)N3CC=C(C)C)c2cccc(O)c2)cc1"
  class-assignment: "fulfilled"
- line-notation: "CCNC(=O)c1ccc(C(=C2CC3CCC(C2)N3Cc2c[nH]cn2)c2ccccc2)cc1"
  class-assignment: "fulfilled"
- line-notation: "CCNC(=O)c1ccc(C(=C2CC3CCC(C2)N3Cc2cccs2)c2cccc(OC)c2)cc1"
  class-assignment: "fulfilled"
- line-notation: "CCNC(=O)c1ccc(C(=C2CC3CCC(C2)N3Cc2ccccn2)c2ccccc2)cc1"
  class-assignment: "fulfilled"
- line-notation: "CCNC(=O)c1ccc(C(=C2CC3CCC(C2)N3Cc2ccccc2Cl)c2cccc(O)c2)cc1"
  class-assignment: "fulfilled"
- line-notation: "CCNC(=O)c1ccc(C(=C2CC3CCC(C2)N3CCc2c[nH]c3ccccc23)c2ccccc2)cc1"
  class-assignment: "not fulfilled"
